Reference source for all entries: patent US20150197559A1

SYSTEM TESTED: BoNT/B4 (Clostridium botulinum)
ASSAY PROCEDURE: KinExA flow fluorimetry, IgG in solution
Measured pKd by item
pKd field: float, defined as -log10 of concentration (mol/L).

Solved entries:
BINDER	READING
2B25.1 IgG (antibody, V domains shown) VH: QVQLQESGPGLVKPSQTLSLSCSVSGASITSGTFYWSWIRQHPGKDLEWIGYIYYSGTTYYNPSLKSRVTLSVDTSKNQFSLKVTSLTAADTAVYHCARGVPIYDSSGTYRGTYFDYWGQGTLVTVSS VL: ESVLTQPPSVSAAPGQKVTISCSGSSSNIGNNYVSWYQQLPGTAPKLLIYDNNRRPSGIPDRFSGSKSGTSATLGITGLQTGDEADYYCGTWDSSLSEVVFGGGTKVTVLG	10.52
B12.1 IgG (antibody, V domains shown) VH: QVNLRESGGGVVQPGRSLRLSCAASGFTFSSYALHWVRQTPGKGLEWVALISYDGSNKYYADSVKGRFTISRDNSKNMLYLQMNSLRAEDTAVYYCAKDRSHYGDYVGYLDYWGQGTLVTVSS VL: AYVLTQPPSVSVAPGKTAAITCEGNNVGNKNVHWYQQRPGQAPVLVVHDDSDRPSGIPERFSGSNSGNTATLTINRVEAGDEADYYCQVWDSSSAQWVFGGGTKLTVLG	9.20

From here, focus on the item given below.
# query: pKd of entry 1B22 IgG (antibody, V domains shown) VH: QVQLQESGSRLVKPSQTLSLTCGVSGGSISSSSYSWSWIRQTPGKGLEWIGYIYHSGSTYYNPSLKSRVTMSVDKSRNQFSLNMSSVTAADTAVYYCARTAFYYENTGPIRCYLDFWGQGTLVTVSS VL: DIQMTQSPSTLSASIGDRVTISCRASQSIQSWLAWYQQRPGEAPKLLIYSASTLQTGVPSRFSGSGSGTDFTLTISSLQPEDFATYYCQQYNSYPLTFGQGTKLEIK
9.89
